- Tested System: Hematopoietic prostaglandin D synthase (Homo sapiens, UniProt O60760)
- Sequence (O60760 whole entry): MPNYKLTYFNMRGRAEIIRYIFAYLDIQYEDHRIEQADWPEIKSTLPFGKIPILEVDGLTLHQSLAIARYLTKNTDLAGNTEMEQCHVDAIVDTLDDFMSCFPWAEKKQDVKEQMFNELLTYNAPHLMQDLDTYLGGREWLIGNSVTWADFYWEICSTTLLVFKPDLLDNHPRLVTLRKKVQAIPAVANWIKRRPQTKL
- Assay Text: Inhibition of HPGDS (unknown origin) assessed as reduction in reduction in GSTase activity relative to control
- Set-up: concentration or dose not given beside the values
- Condition: concentration not given here
Recorded Metric: inhibition (%)

// known answers, use as guide
Cc1nc(-c2ccccc2)[nH]c1-c1cnc(-c2ccccc2)nc1: 81.5
CC(C)(O)c1nc(-c2cccc(CNC(=O)c3ccc(-c4ccccc4)nc3)c2)no1: 62.4
O=C(NCc1ccccc1)c1ccc(-c2ccccn2)nc1: 19.2

A: O=C(NCc1ccccc1)c1cnc(-c2ccccc2)nc1
B: CC(C)(O)c1nc(-c2cccc(-c3ncc(-c4cnc(-c5ccccn5)nc4)[nH]3)c2)no1
Query: Record comparison, field inhibition: mark the lower of A and B . Write the label of whichever entry you select.
Response: B

Source of measurements: ChEMBL document CHEMBL4715889
